Test: reduced mouse 2C T cell binding to pMHC/ICAM-1 vesicles – MLPCN validation set, flow cytometry, LFA-1/ICAM-1 modulator project, pilot screen (AID 2523)
Details: 2C mouse CD8+ T cells, at 7 µM, stronger effect = lower value; measured here: CD8+/vesicle+ event percentage
Could you please report measured double positive events for the items listed next?
Answers are plain numbers, in %.

>  <Compound>
CCOc1ccc2ccccc2c1C(=O)N[C@@H]1C(=O)N2[C@@H]1SC(C)(C)[C@@H]2C(=O)O

>  <Measured Property>
double positive events

>  <Recorded Result>
67.6

$$$$

Report double positive events for every entry below.
1. COc1ccc(C(=O)N2c3cc4c(cc3C(C)=CC2(C)C)OCO4)cc1
2. O=C1c2cccc3cccc(c23)C(=O)N1c1ccccn1
3. Cc1cccc(N2CCN(C(=S)c3ccccc3)CC2)c1
4. CC(C)(C)N1NC2(CCCCC2)NC1=S
5. COc1ccc2[nH]c(=O)c(CN(C(=O)c3ccco3)C(C)C)cc2c1
6. O=C(O)CCn1cnc2ccccc2c1=O
7. COCCN(CCOC)Cc1c(C)[nH]c2c(C)c(C)ccc2c1=O
8. CCN(CC)CCOC(=O)C(c1ccccc1)c1ccccc1

Result string:
[56.6, 58.2, 63.1, 53.1, 72.1, 58.8, 63.2, 59.4]

Report double positive events for every entry below.
1. COc1cc2nc(-c3ccccc3)nc(N3CCCC3)c2cc1OC
2. O=C(CN1CC[n+]2c(-c3cccs3)csc21)c1ccc(Br)cc1

Result string:
1. 68.2
2. 64

* * *

Assay: reduced mouse 2C T cell binding to pMHC/ICAM-1 vesicles – MLPCN validation set, flow cytometry, LFA-1/ICAM-1 modulator project, pilot screen (AID 2523)
Conditions: 2C mouse CD8+ T cells, at 7 µM, stronger effect = lower value; measured here: CD8+/vesicle+ event percentage
Measured Property: double positive events (%)
Give bare numbers, in %.

In the examples that follow, each entry is paired with its recorded double positive events.
>  <Molecule>
Nc1cnn(C2OC(CO)C(O)C2O)c(=O)n1 (stereo unspecified)

>  <Endpoint Unit>
%

>  <Recorded Result>
63.4

$$$$
>  <Molecule>
CO[C@@]1(NC(=O)Cc2cccs2)C(=O)N2C(C(=O)O)=C(COC(N)=O)CS[C@@H]21

>  <Endpoint Unit>
%

>  <Recorded Result>
64.1

$$$$
>  <Molecule>
c1ccc(-c2ccc(C(c3ccccc3)n3ccnc3)cc2)cc1 (stereo unspecified)

>  <Endpoint Unit>
%

>  <Recorded Result>
66.2

$$$$
>  <Molecule>
OCCN1CCN(CCCN2c3ccccc3Sc3ccc(C(F)(F)F)cc32)CC1

>  <Endpoint Unit>
%

>  <Recorded Result>
62.1

$$$$
>  <Molecule>
COc1ccc2c(C=O)cn(C)c2c1

>  <Endpoint Unit>
%

>  <Recorded Result>
66.8

$$$$

Then there is this molecule:
Query string: # return recorded double positive events for entry `CCN(CC)CCCNC(=O)C1c2ccccc2Oc2ccccc21`
Result string: 64.1

* * *

Could you please report measured superoxide response (% of plate) for the items listed next?
Experiment: calorie-restriction mimetic ROS inhibitors, yeast – validation compound set, pilot screen (AID 2706);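 further: yeast exposed to compound for one week at 30 degrees C before staining; 100% = mean of all compound wells on the same plate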
Conditions: S. cerevisiae aging, superoxide DHE fluorescence; at 10 µM; stronger effect = lower value
One number for each entry, in %.

In the examples that follow, each entry is paired with its recorded superoxide response (% of plate).
>  <Molecule>
CC(=O)N(CCC(Cc1ccccc1)c1ccc2c(c1)OCO2)Cc1ccc(Cl)cc1 (stereo not given)

>  <Recorded Result>
102

$$$$
>  <Molecule>
CCOC(=O)C1C2C=CC3(CN(c4ccc(Cl)c(F)c4)C(=O)C13)O2 (stereo not given)

>  <Recorded Result>
105

$$$$
>  <Molecule>
CCCC(=O)Nc1ncnc2c1ncn2[C@@H]1O[C@@H]2COP(=O)(O)O[C@H]2[C@H]1OC(=O)CCC

>  <Recorded Result>
96.8

$$$$
>  <Molecule>
CCOC(=O)C1(Cc2cccc(Cl)c2)CCCN(C2CCN(C(C)=O)CC2)C1 (stereo not given)

>  <Recorded Result>
106

$$$$
>  <Molecule>
CC(=O)N1CCN2C(=O)C1CCCC(=O)c1cc(C(C)C)ccc12 (stereo not given)

>  <Recorded Result>
94.5

$$$$

Report superoxide response (% of plate) for every entry below.
1. COc1ccc(NC(=O)N2CCCCC2c2cccnc2)cc1 (stereo not given)
2. Cc1cc(NS(=O)(=O)c2ccc(N)cc2)no1
3. COc1ccc(C(=O)Nc2ccccc2C(=O)NC(Cc2c[nH]c3ccccc23)C(=O)O)cc1 (stereo not given)

Result string:
116
99.6
107

Report superoxide response (% of plate) for every entry below.
1. Nc1nc(Cl)nc2c1ncn2[C@H]1C[C@H](O)[C@@H](CO)O1
2. COc1c2ccoc2nc2c(OC)cccc12

Result string:
[86.7, 82.1]
